Ref: patent US20240002497A1

Biological target: T1, huNav157 chimera 14 + β1-β2-β3 on cells (human (huNav1.7α/huNav1.5α chimera))
T1 construct: Extracellular loops and transmembrane helices of Nav1.7α, intracellular loops of Nav1.5α; P2A linkers are cleaved co-translationally; also called HEK FlpIn Nav157ch14-β1-β2-β3; huNav157 chimera 14-beta1-beta2-beta3
Assay: binding FACS, HEK FlpIn cells
experimental readout: log10 of EC50 (log10 of the value in nM)
On a log10 scale: recorded EC50, unit nM.

binder	observed result
F0103275B05 (VHH, also called F0103275B05 (parental)-FLAG-HIS6) VHH: EVQLVESGGGLVQPGGSLRLSCAASGSIFNINSMAWYRRAPGKQRELVASSTNGGSTNYADSVKGRFTISRDNAKRVYLQMNSLTPEDTAVYYCNALLQPSIYDISRTYWGQGTLVTVSS	1.52
F010301641 (VHH, also called F0103275B05(R76_V78insT)(L11V, R76N, T83R, V89L)) VHH: EVQLVESGGGVVQPGGSLRLSCAASGSIFNINSMAWYRRAPGKQRELVASSTNGGSTNYADSVKGRFTISRDNAKNTVYLQMNSLRPEDTALYYCNALLQPSIYDISRTYWGQGTLVTVSS	2.54
F010301637 (VHH, also called F0103275B05(L11V, T83R, V89L)) VHH: EVQLVESGGGVVQPGGSLRLSCAASGSIFNINSMAWYRRAPGKQRELVASSTNGGSTNYADSVKGRFTISRDNAKRVYLQMNSLRPEDTALYYCNALLQPSIYDISRTYWGQGTLVTVSS	1.46
F010301635 (VHH, also called F0103275B05(L11V, R39Q, T83R, V89L)) VHH: EVQLVESGGGVVQPGGSLRLSCAASGSIFNINSMAWYRQAPGKQRELVASSTNGGSTNYADSVKGRFTISRDNAKRVYLQMNSLRPEDTALYYCNALLQPSIYDISRTYWGQGTLVTVSS	1.54
F010301636 (VHH, also called F0103275B05(L11V, R76N, T83R, V89L)) VHH: EVQLVESGGGVVQPGGSLRLSCAASGSIFNINSMAWYRRAPGKQRELVASSTNGGSTNYADSVKGRFTISRDNAKNVYLQMNSLRPEDTALYYCNALLQPSIYDISRTYWGQGTLVTVSS	1.65

Entry F010301638 (VHH, also called F0103275B05(L11V, R39Q, R76N, T83R, V89L)) VHH: EVQLVESGGGVVQPGGSLRLSCAASGSIFNINSMAWYRQAPGKQRELVASSTNGGSTNYADSVKGRFTISRDNAKNVYLQMNSLRPEDTALYYCNALLQPSIYDISRTYWGQGTLVTVSS — recorded log10 of EC50 = 1.70
